I'd appreciate it if you could supply IC50 values for the items below.
A complete answer gives the number and then names the unit.

Query block: // lookup IC50 | system=rh beta tryptase (Homo sapiens, UniProt P20231) | key= CCOC(=O)CN(Cc1ccc(C(=N)N)cc1)C(=O)c1ccc2c(c1)nc(CCc1ccc(C(=N)N)cc1)n2C
Result block: 245 nM

Query block: // lookup IC50 | system=rh beta tryptase (Homo sapiens, UniProt P20231) | key= N=C(N)c1ccc(CCc2nc3cc(C(=O)N(Cc4ccc(CN)cc4)Cc4cccc(C(F)(F)F)c4)ccc3n2CC2CC2)cc1
Result block: 822 nM

Query block: // lookup IC50 | system=rh beta tryptase (Homo sapiens, UniProt P20231) | key= CCOCCCn1c(CCc2ccc(C(=N)N)cc2)nc2cc(C(=O)N(Cc3ccc(CN)cc3)Cc3cccc(OC)c3)ccc21
Result block: 422 nM

Query block: // lookup IC50 | system=rh beta tryptase (Homo sapiens, UniProt P20231) | key= CN(CCC(=N)N)C(=O)c1ccc2c(c1)nc(CCc1ccc(C(=N)N)cc1)n2C
Result block: 670 nM

Query block: // lookup IC50 | system=rh beta tryptase (Homo sapiens, UniProt P20231) | key= CCOCCCn1c(CCc2ccc(C(=N)N)cc2)nc2cc(C(=O)N(Cc3ccc(CN)cc3)Cc3cccc(C(F)(F)F)c3)ccc21
Result block: 458 nM

Query block: // lookup IC50 | system=rh beta tryptase (Homo sapiens, UniProt P20231) | key= COc1cccc(CN(CCN)C(=O)c2ccc3c(c2)nc(CCc2ccc(C(=N)N)cc2)n3CC2CC2)c1
Result block: 641 nM

Query block: // lookup IC50 | system=rh beta tryptase (Homo sapiens, UniProt P20231) | key= CCOCCCn1c(CCc2ccc(C(=N)N)cc2)nc2cc(C(=O)N(CCN)Cc3ccccc3)ccc21
Result block: 350 nM

Just for reference, patent US6512000B1 is where these values come from.
